measurement.name: melting point

compound	measured.value
O=c1cc(-c2ccccc2)oc2cc(-c3cccs3)ccc12 [Compound 3]	186 to 189 °C
O=c1cc(-c2ccccc2)oc2cc(-c3ccc4ncccc4c3)ccc12 [Compound 5]	136 to 140 °C
O=c1cc(-c2ccccc2)oc2cc(-c3ccc4[nH]ccc4c3)ccc12 [Compound 6]	246 to 249 °C
O=c1cc(-c2ccc([N+](=O)[O-])cc2)oc2cc(-c3ccc4[nH]ccc4c3)ccc12 [Compound 19]	255 to 258 °C
COc1ccc(-c2cc(=O)c3ccc(-c4ccoc4)cc3o2)cc1 [Compound 8]	173 to 176 °C
O=c1cc(-c2ccccc2)oc2cc(-c3ccoc3)ccc12 [Compound 2, 7-(Furan-3-yl)-2-phenyl-4H-chromen-4-one]	163 to 167 °C
COc1ccc(-c2cc(=O)c3ccc(-c4ccc5ncccc5c4)cc3o2)cc1 [Compound 11]	221 to 224 °C
COc1ccc(-c2cc(=O)c3ccc(-c4ccc5[nH]ccc5c4)cc3o2)cc1 [Compound 12]	129 to 132 °C

###

measured.target: PARP2 (Homo sapiens)
Construct: Reaction Biology Corporation (assay service)
Sequence (Q9UGN5 whole entry): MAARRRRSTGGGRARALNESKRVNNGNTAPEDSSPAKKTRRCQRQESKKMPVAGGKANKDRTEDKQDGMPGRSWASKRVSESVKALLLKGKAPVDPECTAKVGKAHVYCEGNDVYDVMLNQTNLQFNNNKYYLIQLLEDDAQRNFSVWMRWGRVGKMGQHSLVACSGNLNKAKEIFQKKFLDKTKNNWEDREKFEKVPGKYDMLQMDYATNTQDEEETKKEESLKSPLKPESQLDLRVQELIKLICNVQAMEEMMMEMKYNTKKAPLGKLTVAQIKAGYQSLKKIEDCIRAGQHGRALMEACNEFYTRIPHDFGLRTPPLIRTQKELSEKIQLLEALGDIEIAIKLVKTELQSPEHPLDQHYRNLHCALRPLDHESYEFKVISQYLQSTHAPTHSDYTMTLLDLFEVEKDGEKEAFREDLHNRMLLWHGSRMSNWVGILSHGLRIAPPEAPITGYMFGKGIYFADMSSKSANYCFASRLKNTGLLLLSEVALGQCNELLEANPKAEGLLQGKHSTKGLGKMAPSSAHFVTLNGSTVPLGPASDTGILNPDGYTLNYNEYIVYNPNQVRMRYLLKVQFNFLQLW
assay.name: PARP inhibitory assay (NAD/NADH-Glo endpoint, Reaction Biology)
Format: biochemical
protocol.conditions: 10-dose IC50, 3-fold serial dilution

molecule	measured.target	units.symbol	IC50
O=c1cc(-c2ccc(F)cc2)oc2cc(-c3ccoc3)ccc12 [Compound 14]	PARP2 (Homo sapiens)	nM	109

###

compound	melting point
COc1ccc(-c2cc(=O)c3ccc(-c4ccccc4)cc3o2)cc1 [Compound 7]	172 to 175 °C
O=c1cc(-c2ccc(F)cc2)oc2cc(-c3ccc4ncccc4c3)ccc12 [Compound 17]	236 to 240 °C
COc1ccc(-c2cc(=O)c3ccc(-c4cccs4)cc3o2)cc1 [Compound 9]	180 to 184 °C
O=c1cc(-c2ccccc2)oc2cc(-c3ccc4c(c3)OCCO4)ccc12 [Compound 4]	181 to 184 °C
O=c1cc(-c2ccccc2)oc2cc(-c3ccccc3)ccc12 [Compound 1, 2,7-diphenyl-4H-chromen-4-one]	153 to 157 °C
O=c1cc(-c2ccc(F)cc2)oc2cc(-c3ccc4c(c3)OCCO4)ccc12 [Compound 16]	193 to 196 °C
COc1cc(-c2cc(=O)c3ccc(-c4ccc5[nH]ccc5c4)cc3o2)cc(OC)c1OC [Compound 21]	246 to 250 °C
COc1cc(-c2cc(=O)c3ccc(-c4ccc5ncccc5c4)cc3o2)cc(OC)c1OC [Compound 20]	214 to 217 °C
O=c1cc(-c2ccc(F)cc2)oc2cc(-c3ccc4[nH]ccc4c3)ccc12 [Compound 18]	229 to 232 °C
O=c1cc(-c2ccc(F)cc2)oc2cc(-c3ccccc3)ccc12 [Compound 13]	193 to 196 °C
COc1ccc(-c2cc(=O)c3ccc(-c4ccc5c(c4)OCCO5)cc3o2)cc1 [Compound 10]	183 to 186 °C
O=c1cc(-c2ccc(F)cc2)oc2cc(-c3cccs3)ccc12 [Compound 15]	202 to 205 °C

###

System: Ishikawa cell lines
assay.name: In-vitro cytotoxicity (MTT cell viability assay)
Format: cell-based
protocol.conditions: Homo sapiens, Ishikawa, 48 h, read-out: IC50 values (Ishikawa cell lines, µM ± SD), in-vitro growth inhibition

compound	measured.target	units.symbol	IC50
O=C(c1cc(Cc2n[nH]c(=O)c3ccccc23)ccc1F)N1CCN(C(=O)C2CC2)CC1 [Olaparib, reference compound]	Ishikawa cell lines	µM	3.91
